Cited source: patent US12486300B2

Quick reference for PC:TC32 (cellular selectivity) among some molecules
Test system: TC32 Ewing sarcoma cells, expressing EWS-FLI1
PROTOCOL_TEXT: Growth inhibition assay, TC32 cells
Format: cell-based
CONDITION_SUMMARY: ratio of GI50 PC3 to TC32
READOUT: PC:TC32 (cellular selectivity)

- COC(C(=NOCC(=O)NC(Cc1c[nH]c2ccccc12)C(=O)NC(C)CO)C(O)C(C)O)C1Cc2cc3cc(OC4CC(OC5CC(O)C(O)C(C)O5)C(O)C(C)O4)c(C)c(O)c3c(O)c2C(=O)C1OC1CC(OC2CC(OC3CC(C)(O)C(O)C(C)O3)C(O)C(C)O2)C(O)C(C)O1 (stereo not drawn): 2.7
- COC(C(=NOCC(=O)Nc1cccnc1)C(O)C(C)O)C1Cc2cc3cc(OC4CC(OC5CC(O)C(O)C(C)O5)C(O)C(C)O4)c(C)c(O)c3c(O)c2C(=O)C1OC1CC(OC2CC(OC3CC(C)(O)C(O)C(C)O3)C(O)C(C)O2)C(O)C(C)O1 (stereo not drawn): 2.4
- COC(C(=NOCC(=O)NC(Cc1c[nH]c2ccccc12)C(=O)NCc1c[nH]c2ccccc12)C(O)C(C)O)C1Cc2cc3cc(OC4CC(OC5CC(O)C(O)C(C)O5)C(O)C(C)O4)c(C)c(O)c3c(O)c2C(=O)C1OC1CC(OC2CC(OC3CC(C)(O)C(O)C(C)O3)C(O)C(C)O2)C(O)C(C)O1 (stereo not drawn): 2.30
- COC(C(=NOCC(=O)NC(Cc1c[nH]c2ccccc12)C(=O)NC(Cc1c[nH]c2ccccc12)c1nc(C)no1)C(O)C(C)O)C1Cc2cc3cc(OC4CC(OC5CC(O)C(O)C(C)O5)C(O)C(C)O4)c(C)c(O)c3c(O)c2C(=O)C1OC1CC(OC2CC(OC3CC(C)(O)C(O)C(C)O3)C(O)C(C)O2)C(O)C(C)O1 (stereo not drawn): 2.4
- COC(C(=NOCCNC(=O)c1ccc([N+](=O)[O-])c(OCC(C)C)c1)C(O)C(C)O)C1Cc2cc3cc(OC4CC(OC5CC(O)C(O)C(C)O5)C(O)C(C)O4)c(C)c(O)c3c(O)c2C(=O)C1OC1CC(OC2CC(OC3CC(C)(O)C(O)C(C)O3)C(O)C(C)O2)C(O)C(C)O1 (stereo not drawn): 13.3
- COC(C(=NOC(C)(C)C)C(O)C(C)O)C1Cc2cc3cc(OC4CC(OC5CC(O)C(O)C(C)O5)C(O)C(C)O4)c(C)c(O)c3c(O)c2C(=O)C1OC1CC(OC2CC(OC3CC(C)(O)C(O)C(C)O3)C(O)C(C)O2)C(O)C(C)O1 (stereo not drawn) [MTM (15Z)]: 2.25
- COc1ccc(CON=C(C(O)C(C)O)C(OC)C2Cc3cc4cc(OC5CC(OC6CC(O)C(O)C(C)O6)C(O)C(C)O5)c(C)c(O)c4c(O)c3C(=O)C2OC2CC(OC3CC(OC4CC(C)(O)C(O)C(C)O4)C(O)C(C)O3)C(O)C(C)O2)cc1 (stereo not drawn) [MTM (14Z)]: 2.91
- C=CCON=C(C(O)C(C)O)C(OC)C1Cc2cc3cc(OC4CC(OC5CC(O)C(O)C(C)O5)C(O)C(C)O4)c(C)c(O)c3c(O)c2C(=O)C1OC1CC(OC2CC(OC3CC(C)(O)C(O)C(C)O3)C(O)C(C)O2)C(O)C(C)O1 (stereo not drawn): 1.10
- COC(=O)c1ccc(NC(=O)CON=C(C(O)C(C)O)C(OC)C2Cc3cc4cc(OC5CC(OC6CC(O)C(O)C(C)O6)C(O)C(C)O5)c(C)c(O)c4c(O)c3C(=O)C2OC2CC(OC3CC(OC4CC(C)(O)C(O)C(C)O4)C(O)C(C)O3)C(O)C(C)O2)c(OCC(C)C)c1 (stereo not drawn): 5.7
- COC(C(=NOCC(=O)NCc1ccccc1)C(O)C(C)O)C1Cc2cc3cc(OC4CC(OC5CC(O)C(O)C(C)O5)C(O)C(C)O4)c(C)c(O)c3c(O)c2C(=O)C1OC1CC(OC2CC(OC3CC(C)(O)C(O)C(C)O3)C(O)C(C)O2)C(O)C(C)O1 (stereo not drawn): 1.83
- COC(C(=NOCC(=O)Nc1ccc2cc[nH]c2c1)C(O)C(C)O)C1Cc2cc3cc(OC4CC(OC5CC(O)C(O)C(C)O5)C(O)C(C)O4)c(C)c(O)c3c(O)c2C(=O)C1OC1CC(OC2CC(OC3CC(C)(O)C(O)C(C)O3)C(O)C(C)O2)C(O)C(C)O1 (stereo not drawn): 4.2
- CCON=C(C(O)C(C)O)C(OC)C1Cc2cc3cc(OC4CC(OC5CC(O)C(O)C(C)O5)C(O)C(C)O4)c(C)c(O)c3c(O)c2C(=O)C1OC1CC(OC2CC(OC3CC(C)(O)C(O)C(C)O3)C(O)C(C)O2)C(O)C(C)O1 (stereo not drawn): 1.15
- COC(=O)C(Cc1c[nH]c2ccccc12)NC(=O)CON=C(C(O)C(C)O)C(OC)C1Cc2cc3cc(OC4CC(OC5CC(O)C(O)C(C)O5)C(O)C(C)O4)c(C)c(O)c3c(O)c2C(=O)C1OC1CC(OC2CC(OC3CC(C)(O)C(O)C(C)O3)C(O)C(C)O2)C(O)C(C)O1 (stereo not drawn): 24.5
- COC(=O)C(Cc1cn(C)c2ccccc12)NC(=O)CON=C(C(O)C(C)O)C(OC)C1Cc2cc3cc(OC4CC(OC5CC(O)C(O)C(C)O5)C(O)C(C)O4)c(C)c(O)c3c(O)c2C(=O)C1OC1CC(OC2CC(OC3CC(C)(O)C(O)C(C)O3)C(O)C(C)O2)C(O)C(C)O1 (stereo not drawn): 5.64
- COC(C(=NOCC(=O)NC(Cc1c[nH]c2ccccc12)C(=O)NCc1cnccn1)C(O)C(C)O)C1Cc2cc3cc(OC4CC(OC5CC(O)C(O)C(C)O5)C(O)C(C)O4)c(C)c(O)c3c(O)c2C(=O)C1OC1CC(OC2CC(OC3CC(C)(O)C(O)C(C)O3)C(O)C(C)O2)C(O)C(C)O1 (stereo not drawn): 1.9
